# assayed_target: Glucocorticoid Receptor (GR) (Homo sapiens)
# Sequence (P04150 1-777): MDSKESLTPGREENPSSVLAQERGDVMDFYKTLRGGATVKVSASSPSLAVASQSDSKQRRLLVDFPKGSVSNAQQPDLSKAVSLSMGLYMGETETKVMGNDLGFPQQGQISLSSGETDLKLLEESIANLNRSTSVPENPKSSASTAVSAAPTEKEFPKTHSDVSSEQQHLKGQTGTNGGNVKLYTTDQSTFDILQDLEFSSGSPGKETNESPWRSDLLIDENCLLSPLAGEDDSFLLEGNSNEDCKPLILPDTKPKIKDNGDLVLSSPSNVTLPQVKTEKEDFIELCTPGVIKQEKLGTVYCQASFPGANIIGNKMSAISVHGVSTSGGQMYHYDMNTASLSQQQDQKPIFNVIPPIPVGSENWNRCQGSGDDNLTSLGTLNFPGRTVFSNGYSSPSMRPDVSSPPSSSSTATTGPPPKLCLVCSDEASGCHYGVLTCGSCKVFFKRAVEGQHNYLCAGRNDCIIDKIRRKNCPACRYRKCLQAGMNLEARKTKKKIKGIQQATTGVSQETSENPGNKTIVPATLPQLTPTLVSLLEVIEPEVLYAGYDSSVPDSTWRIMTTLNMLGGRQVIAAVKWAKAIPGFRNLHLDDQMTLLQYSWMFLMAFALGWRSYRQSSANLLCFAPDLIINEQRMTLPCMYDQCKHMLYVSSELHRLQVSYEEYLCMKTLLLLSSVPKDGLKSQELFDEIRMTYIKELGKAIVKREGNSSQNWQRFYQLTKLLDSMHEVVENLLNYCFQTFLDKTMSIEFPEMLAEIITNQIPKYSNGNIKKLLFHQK
Measured IC50 accompanies every entry in the list below.

Solved entries (count: 8):
Tell me the measured IC50 of Cn1nc(-c2ccccn2)c2c1NCCSC2c1ccc(-c2cnn(CCC(N)=O)c2)cc1Cl (stereo not shown) , please.
100 to 1000 nM

Request: Cn1nc(-c2ccc(F)cc2)c2c1NCCSC2c1ccc(Cl)cc1Cl (stereo not shown)
< 100 nM

Request: Cc1cc(Br)ccc1[C@H]1SC[C@H](CC#N)Nc2c1c(-c1ccccn1)nn2C (racemic)
< 100 nM

Request: Cc1cc2c(cnn2-c2ccc(F)cc2)cc1C1SCCNc2c1c(-c1ccccn1)nn2C (stereo not shown)
< 100 nM

Request: Cc1ncccc1NC(=O)c1ccc(C2SCCNc3c2c(-c2ccccn2)nn3C)c(Cl)c1 (stereo not shown)
< 100 nM

Request: COC(=O)c1ccc(-c2nn(C)c3c2C(c2ccc(Cl)cc2Cl)SCCN3)nc1 (stereo not shown)
1000 to 10000 nM

Request: Cc1cc(Cl)ccc1C1SCC(C)Nc2c1c(-c1ccccn1)nn2C (racemic)
< 100 nM

Request: CC(C)c1nn(C)c2c1C(c1ccc(Cl)cc1Cl)SCCN2 (stereo not shown)
100 to 1000 nM

---
Tell me the measured IC50 of Cc1ncccc1NC(=O)c1ccc(-c2nn(C)c3c2C(c2ccc(Cl)cc2Cl)SCCN3)nc1 (stereo not shown) , please.
1000 to 10000 nM
